Molecular target: SARS-CoV-2 prefusion-stabilized spike protein (SARS-CoV-2-PreS) (SARS-CoV-2, UniProt P0DTC2 14-1208)
Experiment: Biacore, apparent affinity
pKd: −log10 of the molar value.
readout.type: pKd

Data request: Given the binder 16H7 VHH-Fc (Fc fusion) QVQLVESGGGLVQAGGSLRLSCAASGRAFSKDTMGWFRQAPGKEREFVAVISASGDSTYYADFVKGRFTISRDNAKNTEYLQMNSLKPEDTAVYHCAADGARAYYSINAHRYSWAYNYWGQGTQVTVSS , what is its reported pKd?
Data returned: 8.52

Data request: Given the binder 8E9 VHH-Fc (Fc fusion) QVQLVESGGGLVEAGGSLRLSCVASGSSSSINAMGWYRQAPGKQRELVASISHDGETKYANSVKGRFTISRGNAKNTIYLQMNSLKPEDTAVYYCVGDVAWVVVAGEYDYWGQGTQVTVSS , what is its reported pKd?
Data returned: > 9.70

Data request: Given the binder 5D7 VHH-Fc (Fc fusion) QVQLVESGGGLVQAGGSLRLSCAASGRTGSRYIMGWFRQAPGKEREFVAAINWRGDSTYYADSVKGRFTIARDNAKNTAYLQMNSLKPEDTAVYYCVADRGESYYYTRSTEYTYWGQGTQVTVSS , what is its reported pKd?
Data returned: > 9.70

Data request: Given the binder 10B8 VHH-Fc (Fc fusion) QVQLVESGGGLVQPGGSLRLSCAASGITLDYYAIAWFRQAPGKEREGVSCFCSSDGDIRYADSVKGRFTISRDNAKNTVYLQMNSLKPEDTAVYYCATERVYSSTWFFHRYSELDFGSWGRGTQVTVSS , what is its reported pKd?
Data returned: > 9.70
